# Test system: HeLa
# Experiment: ATP-based viability loss in HeLa cells – cell-based, CellTiter-Glo luminescence, cherry-pick samples, cytotoxicity control for MITF activator project, dose response (AID 540259)
# Format: functional
# Particulars: Homo sapiens
Activity calls are given as the source filed them.
Classes used: yes (1) (active), no (0) (inactive)

                                   compound  assigned_class
0   O=C(N/N=C\c1cccc(Cl)c1)c1[nH]nc2c1CCCC2          no (0)
1       CC(C)c1ccc(NC2=NN=C(c3cccs3)CS2)cc1         yes (1)
2            COc1ccc(-c2csc(-n3cccn3)n2)cc1         yes (1)
3  C=CCC1(CC=C)CCCN1C(=O)C1CCC(=O)N(CCc2ccccc2)C1 (centres undefined)         yes (1)

---

# Study system: Heat shock factor protein 1 (Mus musculus, UniProt P38532)
# Sequence (P38532 whole entry): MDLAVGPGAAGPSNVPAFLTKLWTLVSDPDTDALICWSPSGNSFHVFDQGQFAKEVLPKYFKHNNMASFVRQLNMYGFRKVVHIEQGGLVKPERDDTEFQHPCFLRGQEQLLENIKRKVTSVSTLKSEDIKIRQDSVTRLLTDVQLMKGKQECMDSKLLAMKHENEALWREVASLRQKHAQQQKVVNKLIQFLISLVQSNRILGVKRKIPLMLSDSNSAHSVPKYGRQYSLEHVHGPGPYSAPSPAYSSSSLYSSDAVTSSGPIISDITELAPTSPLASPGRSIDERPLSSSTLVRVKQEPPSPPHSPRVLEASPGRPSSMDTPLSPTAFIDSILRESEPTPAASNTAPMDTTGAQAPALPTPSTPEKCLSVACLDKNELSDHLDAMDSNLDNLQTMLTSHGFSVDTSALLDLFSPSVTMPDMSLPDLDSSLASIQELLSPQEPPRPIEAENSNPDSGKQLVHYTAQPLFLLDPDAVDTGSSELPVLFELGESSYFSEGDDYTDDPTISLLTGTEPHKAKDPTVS
# Experiment: decrease of HSF1-responsive luciferase luminescence – cell-based, NIH3T3, dose retest, confirmation (AID 2382);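 further: NIH3T3 fibroblasts with HSF1-driven luciferase reporter stressed by proteasome inhibitor MG132; luminescence from HSF1-driven luciferase expression after 8 hours of MG132 stress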
# Assay type: functional
Active and inactive are the calls of the source.
EC50 reference
Readout type: EC50

>>> print(df.to_string())
                                   molecule                 result
0  O=C(O)c1ccc(N2C(=O)CC(N3CCN(c4cccc(C(F)(F)F)c4)CC3)C2=O)cc1 (configuration not stated)  > 195 µM (not active)
1  CC[C@H]1CN2CCc3cc(OC)c(OC)cc3[C@@H]2C[C@@H]1C[C@H]1NCCc2cc(OC)c(OC)cc21     < 0.16 µM (active)
2            Cc1cc(Cl)ccc1OCCCC(=O)N1CCOCC1  > 195 µM (not active)
3         CCOC(=O)c1c(O)nc2ccccc2c1N1CCCCC1  > 195 µM (not active)
4  CN1CCN(C(=O)/C(=C\c2cccs2)NC(=O)c2ccco2)CC1  > 195 µM (not active)
5  COc1ccc(/C=N/n2c(S)nnc2-c2cc(C)[nH]n2)cc1OC  > 195 µM (not active)
6  COc1ccc(CN(C)C(=O)c2cc(S(=O)(=O)N3CCOCC3)ccc2N2CCCC2)cc1  > 195 µM (not active)
